Biological target: T1, IFF05588
T1 chain: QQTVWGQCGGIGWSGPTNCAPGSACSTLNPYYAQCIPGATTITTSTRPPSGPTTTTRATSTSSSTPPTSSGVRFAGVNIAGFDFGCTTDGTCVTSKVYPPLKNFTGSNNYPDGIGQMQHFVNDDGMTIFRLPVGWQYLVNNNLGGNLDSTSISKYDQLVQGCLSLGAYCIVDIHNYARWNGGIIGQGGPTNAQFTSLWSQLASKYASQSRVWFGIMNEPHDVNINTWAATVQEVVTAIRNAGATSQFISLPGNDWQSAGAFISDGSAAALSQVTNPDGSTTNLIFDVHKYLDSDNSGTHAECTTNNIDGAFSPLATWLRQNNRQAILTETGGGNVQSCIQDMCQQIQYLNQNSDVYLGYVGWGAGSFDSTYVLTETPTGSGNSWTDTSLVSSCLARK
The entries below come with measured Relative late peak area (centered, scaled, averaged over 5, 10 and 15 min) values attached.
Quantity Kind: Relative late peak area (centered, scaled, averaged over 5, 10 and 15 min)

| Protein | Observed Result |
| --- | --- |
| IFF21370 (protein) DDTPPFKPVISPAFDFYGTLEDGLRANLAPTQSTWDQWGEGWIPDDCKWYAEYYGYAANEFEVFNVKYTDCDEAWIMCRHKQATVSQTGMIDLFGRLPLGMREYVKHVVMAPETKANTVASSYRGTIAFDQDYFSIYNLVHETGHCMDGTAALDVFPDGISSSSIWQDNYNQDSAVVRDYARSSWVENFAETGTVAVYDKVVPGGIGPIQPNWEQIYHQYATYNGYLSDIITPGAKDKCTQRRENSETVAMGASSRIMRSSPPDTSFKSDVKVMPAGANDEFFFEHSRDH | -1.05 |
| IFF21352 (protein) NLNKPVIQPNFPSLAPGLMSHLSPTHSTWDDWGAGWIPRDCKSMVQGAGFSPNDIIPFNIHYDDCGQTWTFCRHKKSPLSELQILDMFGRLPVRMRSFIRHMVFVPGTRSAGSNGDNILVVGDGDITLFAHEIGHSLDSHAFDPSYGVPFSTGNVWVSNYNLDSAVSDSYAQSSQQENFAQETVISLFDKVVPGGIGTIQPNWRAIFHQYATLQGYIGNVIIPGGTCTHRLTDSPPVPMSGSAKSRRGLGLKPDVSLTPEVKEIEAIPMESSITMTSFNEQGKPSGTYVIHLK | -0.63 |
